Taken from paper PMC11266714.

target: PKC-βI (Rattus norvegicus); construct: expressed in transfected cells; host or cells: Saccharomyces cerevisiae; assay: Yeast PKC assay, PKC-βI; type: cell-based, yeast (Saccharomyces cerevisiae); conditions: yeast growth inhibition, 50% of maximal effect of PMA; mean ± SEM, four experiments; ND = maximal response lower than 50% growth inhibition; read-out: EC50 (nM) PKC-βI
Sequence (P68403 whole entry): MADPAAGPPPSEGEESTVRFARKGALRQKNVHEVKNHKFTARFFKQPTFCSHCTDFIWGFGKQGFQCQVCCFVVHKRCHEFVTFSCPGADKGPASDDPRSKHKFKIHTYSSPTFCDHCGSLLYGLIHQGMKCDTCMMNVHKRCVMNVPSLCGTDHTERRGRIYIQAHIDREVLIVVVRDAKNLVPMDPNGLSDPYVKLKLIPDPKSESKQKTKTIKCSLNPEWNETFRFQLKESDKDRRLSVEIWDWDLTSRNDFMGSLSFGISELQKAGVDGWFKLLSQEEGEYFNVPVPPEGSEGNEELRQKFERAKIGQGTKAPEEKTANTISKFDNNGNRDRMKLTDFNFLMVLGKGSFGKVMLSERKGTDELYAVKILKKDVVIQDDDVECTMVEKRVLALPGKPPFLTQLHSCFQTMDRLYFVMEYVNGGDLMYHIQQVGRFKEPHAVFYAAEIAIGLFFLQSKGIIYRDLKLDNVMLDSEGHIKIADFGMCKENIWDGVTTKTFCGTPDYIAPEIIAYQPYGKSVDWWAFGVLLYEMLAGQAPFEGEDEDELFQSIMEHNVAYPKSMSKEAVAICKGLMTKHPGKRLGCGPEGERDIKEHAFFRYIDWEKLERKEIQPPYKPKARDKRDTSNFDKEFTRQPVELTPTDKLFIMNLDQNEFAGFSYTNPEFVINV
endpoint-label: EC50 (nM)
# unit: nM | format: bare number

{"compound": "CCC(=O)OC1=C(C(C)C)C(=O)C2=C(C1=O)C1(C)CCCC(C)(C)C1C(OC(=O)CC)C2OC(C)=O (centres unmarked) [RoyPr]", "value-units": "nM", "EC50": 229}

We now examine a further compound.
Request: Entry CC(=O)OC1C2=C(C(=O)C(O)=C(C(C)C)C2=O)C2(C)CCCC(C)(C)C2C1O (stereo not drawn) [Roy, 7α-acetoxy-6β-hydroxyroyleanone] : reported EC50 = ?
Response: 423

----------
Tested on: MDA-MB-231 human breast adenocarcinoma cells
Assay: Sulforhodamine B (SRB) cell proliferation assay, MDA-MB-231
Assay type: cell-based
Details: Homo sapiens, MDA-MB-231, 48 h, 48 h treatment
Procedure: The cytotoxic effect (IC50 values, Table 4) was determined from dose–response curves. Royleanones and doxorubicin (Doxo) were tested on human breast adenocarcinoma lines. […] HFF‐1 cells were cultured in DMEM/F‐12 supplemented with 10% FBS. All cells were maintained at 37 °C in a humidified atmosphere of 5% CO2. Cells were routinely tested for mycoplasma infection using the MycoAlert™ PLUS mycoplasma detection kit (Lonza). […]
Below, each entry is listed alongside its reported IC50.
# unit: nM | format: bare number

{"compound": "CC(=O)O[C@H]1C2=C(C(=O)C(OC(=O)c3ccccc3)=C(C(C)C)C2=O)[C@@]2(C)CCCC(C)(C)[C@@H]2[C@@H]1O", "IC50, nM": 1650}

We now examine a further compound.
Request: Entry CC(=O)OC1C2=C(C(=O)C(O)=C(C(C)C)C2=O)C2(C)CCCC(C)(C)C2C1O (stereo not drawn) [Roy, 7α-acetoxy-6β-hydroxyroyleanone] : reported IC50 = ?
Response: 300

----------
tested on: non-tumorigenic foreskin fibroblasts HFF-1 cells; test: Sulforhodamine B (SRB) cell proliferation assay, HFF-1; type: cell-based, human; details: Homo sapiens, HFF-1, 48 h treatment
Below, each entry is listed alongside its reported IC50.
# unit: µM | format: bare number

Consider the following illustrative entries.
{"compound": "CC(=O)OC1C2=C(C(=O)C(O)=C(C(C)C)C2=O)C2(C)CCCC(C)(C)C2C1O (stereo not drawn) [Roy, 7α-acetoxy-6β-hydroxyroyleanone]", "value-units": "µM", "data-value": 1.02}
{"compound": "COc1cccc2c1C(=O)c1c(O)c3c(c(O)c1C2=O)C[C@@](O)(C(=O)CO)C[C@@H]3O[C@H]1C[C@H](N)[C@H](O)[C@H](C)O1 [Doxo, Doxorubicin, reference compound]", "value-units": "µM", "data-value": 0.1}
{"compound": "CC(=O)O[C@H]1C2=C(C(=O)C(OC(=O)c3ccccc3)=C(C(C)C)C2=O)[C@@]2(C)CCCC(C)(C)[C@@H]2[C@@H]1O", "value-units": "µM", "data-value": 1.16}

We now examine a further compound.
Request: Request - read-out IC50 | tested on non-tumorigenic foreskin fibroblasts HFF-1 cells | compound "CC(=O)O[C@H]1C2=C(C(=O)C(OC(=O)c3ccccc3)=C(C(C)C)C2=O)[C@@]2(C)CCCC(C)(C)[C@@H]2[C@@H]1OC(=O)c1ccccc1"
Response: 3.58
